Molecular target: CRBN (Homo sapiens)
Construct: endogenous in cells; host or cells: primary human T cells / CD8+ T cells from peripheral blood
Sequence (Q96SW2 whole entry): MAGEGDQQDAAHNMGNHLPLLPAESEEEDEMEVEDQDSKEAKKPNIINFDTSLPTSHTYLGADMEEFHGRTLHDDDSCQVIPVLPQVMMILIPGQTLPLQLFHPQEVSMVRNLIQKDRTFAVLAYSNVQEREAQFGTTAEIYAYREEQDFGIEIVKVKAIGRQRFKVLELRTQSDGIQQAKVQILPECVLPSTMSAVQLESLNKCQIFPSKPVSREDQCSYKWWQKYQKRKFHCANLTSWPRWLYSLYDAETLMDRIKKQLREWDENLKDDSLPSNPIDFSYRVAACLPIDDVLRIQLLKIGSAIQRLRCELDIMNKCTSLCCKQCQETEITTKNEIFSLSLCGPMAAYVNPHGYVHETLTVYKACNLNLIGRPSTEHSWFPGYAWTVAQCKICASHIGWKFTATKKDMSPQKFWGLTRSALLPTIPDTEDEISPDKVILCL
Assay: Western blot for expression of CRBN relative to vinculin in human T cells (CRBN degradation)
Type: cell-based
Conditions: 24 h, 10nM; human T cells, 24 hours; read-out: Relative Density of CRBN (% of DMSO)
I'd appreciate it if you could supply remaining activity at 0.01 µM values for the items below.
Give bare numbers, in %.

COMPOUND | remaining activity at 0.01 µM / %
O=C1CCC(N2Cc3c(CCCCCC(=O)Nc4cccc5c4CN(C4CCC(=O)NC4=O)C5=O)cccc3C2=O)C(=O)N1 (stereo not shown) [EC2-109] | 97.5
Cc1nc2cccc(NC(=O)CCCCC(=O)Nc3cccc4nc(C)n(C5CCC(=O)NC5=O)c(=O)c34)c2c(=O)n1C1CCC(=O)NC1=O (stereo not shown) [MA10-088] | 135
O=C(CCc1cccc2c1CN(C1CCC(=O)NC1=O)C2=O)NCCOCCNC(=O)CCc1cccc2c1CN(C1CCC(=O)NC1=O)C2=O (stereo not shown) [SM3-010] | 119

Please state remaining activity at 0.01 µM for every compound in the list that follows.
1. O=C1CCC(N2Cc3c(NC(=O)CCCCCC(=O)Nc4cccc5c4CN(C4CCC(=O)NC4=O)C5=O)cccc3C2=O)C(=O)N1 (stereo not shown) [EC1-141]
2. Cc1nc2cccc(NC(=O)CCCCCC(=O)Nc3cccc4nc(C)n(C5CCC(=O)NC5=O)c(=O)c34)c2c(=O)n1C1CCC(=O)NC1=O (stereo not shown) [MA10-121]
3. O=C1CCC(N2Cc3c(CCCOCCCc4cccc5c4CN(C4CCC(=O)NC4=O)C5=O)cccc3C2=O)C(=O)N1 (stereo not shown) [SM2-144]
4. Cc1nc2cccc(NC(=O)CCCCCCCC(=O)Nc3cccc4nc(C)n(C5CCC(=O)NC5=O)c(=O)c34)c2c(=O)n1C1CCC(=O)NC1=O (stereo not shown) [MA10-086]
5. O=C1CCC(NC(=O)c2cccc(NC(=O)CCCCCCC(=O)Nc3cccc(C(=O)NC4CCC(=O)NC4=O)c3)c2)C(=O)N1 (stereo not shown) [XS01-050]
6. O=C1CCC(N2C(=O)c3cccc(NC(=O)CCCCCC(=O)Nc4cccc5c4C(=O)N(C4CCC(=O)NC4=O)C5=O)c3C2=O)C(=O)N1 (stereo not shown) [EC1-119]
7. O=C1CCC(NC(=O)CCCCCCC(=O)NC2CCC(=O)NC2=O)C(=O)N1 (stereo not shown) [XS01-093]
8. O=C(/C=C/c1cccc2c1CN(C1CCC(=O)NC1=O)C2=O)NCCOCCOCCNC(=O)/C=C/c1cccc2c1CN(C1CCC(=O)NC1=O)C2=O (stereo not shown) [SM3-003]

Completion:
1: 91.2; 2: 56.5; 3: 24.1; 4: 138; 5: 168; 6: 30.5; 7: 116; 8: 125

Please state remaining activity at 0.01 µM for every compound in the list that follows.
1. O=C1CCC(N2C(=O)c3cccc(NC(=O)[C@H]4CC[C@H](C(=O)Nc5cccc6c5C(=O)N(C5CCC(=O)NC5=O)C6=O)CC4)c3C2=O)C(=O)N1 (stereo partly shown) [EC1-135]
2. O=C(CCc1cccc2c1CN(C1CCC(=O)NC1=O)C2=O)NCCOCCOCCOCCNC(=O)CCc1cccc2c1CN(C1CCC(=O)NC1=O)C2=O (stereo not shown) [SM3-011]

Completion:
134
102

The origin of these recorded values is patent US20250288573A1.
